System: T1, Human complement Factor D, mature (human, UniProt P00746 27-253)
T1 construct: In the TR-FRET assay the factor D was bought from Complement Technology; In the hemolysis assay it was the factor D of C1q-depleted human serum; also called human Factor D; hFD
T1 sequence (P00746 27-253): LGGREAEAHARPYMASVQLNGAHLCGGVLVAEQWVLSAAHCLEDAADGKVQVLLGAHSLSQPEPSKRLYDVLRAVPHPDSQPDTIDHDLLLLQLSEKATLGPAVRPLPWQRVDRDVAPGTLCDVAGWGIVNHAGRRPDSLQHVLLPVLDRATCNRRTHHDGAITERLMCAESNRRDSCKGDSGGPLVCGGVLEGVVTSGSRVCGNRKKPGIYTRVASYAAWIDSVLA
Assay Summary: SPR (Biacore T200): Fab captured with anti-huFab kit, human Factor D injected, 25 C, 1:1 model;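 note: sensorgrams were corrected by subtracting a blank injection of running buffer before fitting kinetic and affinity constants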
Decision: koff compared against 0.0006 s⁻¹; not below it gives satisfied, below it gives not satisfied.

Answered examples (4):
Binder	Cat
hu20D12.v2.13 Fab (Fab, V domains shown) VH: EVQLVQSGAEVKKPGASVKVSCKASGYTFTSYYMYWVRQAPGQGLEWIGEINPTSGGTNFNEKFKSRATLTVDTSTSTAYLELSSLRSEDTAVYYCAREGGFAYWGQGTLVTVSS VL: DIQMTQSPSSLSASVGDRVTITCKASQNVDTDVAWFQQKPGKAPKGLIRSASSRYSGVPSRFSGSGSGTDFTLTISSLQPEDFATYYCQQYENYPLTFGQGTKVEIKR	not satisfied
hu20D12.v2.1 Fab (Fab, V domains shown) VH: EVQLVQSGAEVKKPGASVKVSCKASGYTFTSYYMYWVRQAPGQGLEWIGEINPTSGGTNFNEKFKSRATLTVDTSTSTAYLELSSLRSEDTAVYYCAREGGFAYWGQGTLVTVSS VL: DIQMTQSPSSLSASVGDRVTITCKASQNVDTDVAWFQQKPGKAPKGLIRSASSRYSGVPSRFSGSGSGTDFTLTISSLQPEDFATYYCQQYNNYPLTFGQGTKVEIKR	not satisfied
hu20D12.v2.14 Fab (Fab, V domains shown) VH: EVQLVQSGAEVKKPGASVKVSCKASGYTFTSYYMYWVRQAPGQGLEWIGEINPTSGETNFNEKFKSRATLTVDTSTSTAYLELSSLRSEDTAVYYCAREGGFAYWGQGTLVTVSS VL: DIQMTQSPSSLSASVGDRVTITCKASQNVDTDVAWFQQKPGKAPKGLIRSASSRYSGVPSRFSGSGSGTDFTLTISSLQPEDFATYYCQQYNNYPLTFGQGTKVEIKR	not satisfied
hu20D12.v2.7 Fab (Fab, V domains shown) VH: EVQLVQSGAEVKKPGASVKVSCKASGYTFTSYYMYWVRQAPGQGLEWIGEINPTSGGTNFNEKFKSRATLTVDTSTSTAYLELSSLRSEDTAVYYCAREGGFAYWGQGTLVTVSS VL: DIQMTQSPSSLSASVGDRVTITCKASQNVDTDVAWFQQKPGKAPKGLIKSASSRYSGVPSRFSGSGSGTDFTLTISSLQPEDFATYYCQQYNNYPLTFGQGTKVEIKR	not satisfied

Prompt: Test whether the binder hu20D12.v2.5 Fab (Fab, V domains shown) VH: EVQLVQSGAEVKKPGASVKVSCKASGYTFTSYYMYWVRQAPGQGLEWIGEINPYSGGTNFNEKFKSRATLTVDTSTSTAYLELSSLRSEDTAVYYCAREGGFAYWGQGTLVTVSS VL: DIQMTQSPSSLSASVGDRVTITCKASQNVDTDVAWFQQKPGKAPKGLIYSASSRYSGVPSRFSGSGSGTDFTLTISSLQPEDFATYYCQQYNNYPLTFGQGTKVEIKR records koff of 0.0006 s⁻¹ or higher.
Response: satisfied
